Each recorded value in this set is attributed to PubChem BioAssay AID1963871.

Test system: KRAS-mutant PDC multicell tumor spheroid viability;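 also: viability read after seven days of drug exposure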
Experiment: Anticancer human tumor 521955-158-R2-J5-PDC patient-derived pancreatic carcinoma cell line growth inhibition [KRAS2]; active = viability on the fitted dose curve at most 10% of control; inactive = the rest
Conditions: second compound 3.16 µM; first compound 0.00316 µM
Respond only with the outcome that fits, drawn from active, inactive

Prompt: Called result for CN(C)C/C=C/C(=O)Nc1cc2c(Nc3ccc(F)c(Cl)c3)ncnc2cc1O[C@H]1CCOC1 + CC1OCC2(CCN(c3cnc(Sc4ccnc(N)c4Cl)c(N)n3)CC2)C1N
Response: inactive

Prompt: Another molecule: CC(C)n1nc(-c2ccc3oc(N)nc3c2)c2c(N)ncnc21 + CNCc1ccccc1-c1csc(C(C)Nc2nc(C)nc3cc(OC)c(OC)cc23)c1
Response: active
